Recorded measurements of polymerase ribozyme fitness (log ratio), one per entry
B1: TPR 5TU (parent)
chain: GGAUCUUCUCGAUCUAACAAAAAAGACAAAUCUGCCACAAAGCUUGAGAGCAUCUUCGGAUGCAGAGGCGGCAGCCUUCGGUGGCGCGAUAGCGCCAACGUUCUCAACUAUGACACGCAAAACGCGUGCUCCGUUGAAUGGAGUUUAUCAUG

Variants of: B1
Assay remarks: polymerase ribozyme fitness, log enrichment relative to wild type (log ratio); higher = more active; in vitro selection for triplet polymerase activity
Fewer inactive variants are shown than the library holds.
Give a plain numeric answer without units written out.

Change: A41G C75G
polymerase ribozyme fitness (log ratio): -2.98
//
Change: C75U U134A
polymerase ribozyme fitness (log ratio): -1.13
//
Change: U33C C95U
polymerase ribozyme fitness (log ratio): -2.01

Could you now consider this next variant?
Problem: Quickly give me recorded polymerase ribozyme fitness (log ratio) for U61G C96U
Solution: -1.29
